- Test system: MCF7
- protocol notes: Cytotoxicity against human MCF7 cells assessed as induction of cell death at 0.5 to 25 uM after 48 hrs by MTT assay
- Assay type: functional, cell-based
Active and inactive are the calls of the source. The calls are words filed in the database; no cut-off is given here.
Thanks in advance; please answer with one of these: Yes for active, No for inactive

Solved entries (count: 3):
chem smiles: O=C(NCC/C(=C(\c1ccccc1)c1ccc(OCCO)cc1)c1ccccc1)Oc1ccccc1
measurement target: MCF7
category label: Yes
//
chem smiles: CS(=O)(=O)OCCOc1ccc(/C(=C(/CCCl)c2ccccc2)c2ccccc2)cc1
measurement target: MCF7
category label: No
//
chem smiles: [N-]=[N+]=NCCOc1ccc(/C(=C(/CCCl)c2ccccc2)c2ccccc2)cc1
measurement target: MCF7
category label: No

Q. Assay outcome for `[N-]=[N+]=NCC/C(=C(\c1ccccc1)c1ccc(OCCO)cc1)c1ccccc1` : what was it?
A. Yes

Q. Assay outcome for `[N-]=[N+]=NCCOc1ccc(/C(=C(/CCN=[N+]=[N-])c2ccccc2)c2ccccc2)cc1` : what was it?
A. No

Q. Assay outcome for `NCC/C(=C(\c1ccccc1)c1ccc(OCCO)cc1)c1ccccc1` : what was it?
A. Yes

Q. Assay outcome for `NCCOc1ccc(/C(=C(/CCN)c2ccccc2)c2ccccc2)cc1` : what was it?
A. Yes
